# Test system: Liver
# PROTOCOL DESCRIPTION: Metabolic stability in CD1 mouse liver microsomes assessed as compound remaining at 1 uM after 5 mins by HPLC-MS analysis
# Assay type: ADME
READOUT NAME: Stability (%)
Just the number in %, nothing appended.

Input line: Name the recorded Stability for CC[C@H](C)[C@H]1C(=O)N2CCC[C@H]2C(=O)O[C@H](C(C)(C)C)C[C@@H](C)C[C@H](O)[C@H](C)C2=N[C@H](CCC(=O)N[C@@H](Cc3ccc(OC)cc3)C(=O)N(C)[C@@H](C)C(=O)N1C)CS2 .
Output line: 71.4

Input line: Name the recorded Stability for CC[C@H](C)[C@H]1C(=O)N2CCC[C@H]2C(=O)O[C@H](C(C)(C)C)C[C@@H](C)C[C@H](O)C(C)(C)C2=N[C@@H](CCC(=O)N[C@@H](Cc3ccc(OC)cc3)C(=O)N(C)[C@@H](C)C(=O)N1C)CS2 .
Output line: 77.45

Input line: Name the recorded Stability for CC[C@H](C)[C@H]1C(=O)N2CCC[C@H]2C(=O)O[C@H](C(C)(C)C)C[C@@H](C)C[C@H](O)[C@H](C)C2=N[C@@H](CCC(=O)N[C@@H](Cc3ccc(OC)cc3)C(=O)N(C)[C@@H](C)C(=O)N1C)CS2 .
Output line: 70.8

Input line: Name the recorded Stability for CC[C@H](C)[C@H]1C(=O)N2CCC[C@H]2C(=O)O[C@H](C(C)(C)C)C[C@@H](C)C[C@H](O)CC2=N[C@@H](CCC(=O)N[C@@H](Cc3ccc(OC)cc3)C(=O)N(C)[C@@H](C)C(=O)N1C)CS2 .
Output line: 60.5

====

# System: Liver
# PROTOCOL DESCRIPTION: Metabolic stability in CD1 mouse liver microsomes assessed as compound remaining at 1 uM after 120 mins by HPLC-MS analysis in presence of NADPH
# Type: ADME
# CONDITION DESCRIPTION: 2 h
Exercise: for every item that follows, state its recorded Stability.
Just the number in %, nothing appended.

Input line: Name the recorded Stability for CC[C@H](C)[C@H]1C(=O)N2CCC[C@H]2C(=O)O[C@H](C(C)(C)C)C[C@@H](C)C[C@H](O)CC2=N[C@@H](CCC(=O)N[C@@H](Cc3ccc(OC)cc3)C(=O)N(C)[C@@H](C)C(=O)N1C)CS2 .
Output line: 4.3

Input line: Name the recorded Stability for CC[C@H](C)[C@H]1C(=O)N2CCC[C@H]2C(=O)O[C@H](C(C)(C)C)C[C@@H](C)C[C@H](O)[C@H](C)C2=N[C@@H](CCC(=O)N[C@@H](Cc3ccc(OC)cc3)C(=O)N(C)[C@@H](C)C(=O)N1C)CS2 .
Output line: 6.02

Input line: Name the recorded Stability for CC[C@H](C)[C@H]1C(=O)N2CCC[C@H]2C(=O)O[C@H](C(C)(C)C)C[C@@H](C)C[C@H](O)C(C)(C)C2=N[C@@H](CCC(=O)N[C@@H](Cc3ccc(OC)cc3)C(=O)N(C)[C@@H](C)C(=O)N1C)CS2 .
Output line: 5.01

Input line: Name the recorded Stability for CC[C@H](C)[C@H]1C(=O)N2CCC[C@H]2C(=O)O[C@H](C(C)(C)C)C[C@@H](C)C[C@H](O)[C@H](C)C2=N[C@H](CCC(=O)N[C@@H](Cc3ccc(OC)cc3)C(=O)N(C)[C@@H](C)C(=O)N1C)CS2 .
Output line: 5.63

====

# Test system: Liver
# PROTOCOL DESCRIPTION: Metabolic stability in CD1 mouse liver microsomes assessed as compound remaining at 1 uM after 3 mins by HPLC-MS analysis in presence of NADPH
# Assay type: ADME
# CONDITION DESCRIPTION: 0.05 h
Exercise: for every item that follows, state its recorded Stability.
Note: state the figure and append the unit.

Input line: Name the recorded Stability for CC[C@H](C)[C@H]1C(=O)N2CCC[C@H]2C(=O)O[C@H](C(C)(C)C)C[C@@H](C)C[C@H](O)C(C)(C)C2=N[C@@H](CCC(=O)N[C@@H](Cc3ccc(OC)cc3)C(=O)N(C)[C@@H](C)C(=O)N1C)CS2 .
Output line: 37.2%

Input line: Name the recorded Stability for CC[C@H](C)[C@H]1C(=O)N2CCC[C@H]2C(=O)O[C@H](C(C)(C)C)C[C@@H](C)C[C@H](O)[C@H](C)C2=N[C@@H](CCC(=O)N[C@@H](Cc3ccc(OC)cc3)C(=O)N(C)[C@@H](C)C(=O)N1C)CS2 [APRATOXIN S4] .
Output line: 39.55%

Input line: Name the recorded Stability for CC[C@H](C)[C@H]1C(=O)N2CCC[C@H]2C(=O)O[C@H](C(C)(C)C)C[C@@H](C)C[C@H](O)[C@H](C)C2=N[C@H](CCC(=O)N[C@@H](Cc3ccc(OC)cc3)C(=O)N(C)[C@@H](C)C(=O)N1C)CS2 .
Output line: 51.4%

Input line: Name the recorded Stability for CC[C@H](C)[C@H]1C(=O)N2CCC[C@H]2C(=O)O[C@H](C(C)(C)C)C[C@@H](C)C[C@H](O)CC2=N[C@@H](CCC(=O)N[C@@H](Cc3ccc(OC)cc3)C(=O)N(C)[C@@H](C)C(=O)N1C)CS2 .
Output line: 54.95%

====

Exercise: for every item that follows, state its recorded Stability.
# Tested on: Liver
# PROTOCOL DESCRIPTION: Metabolic stability in CD1 mouse liver microsomes assessed as compound remaining at 1 uM after 3 mins by HPLC-MS analysis
# Format: ADME
# CONDITION DESCRIPTION: 0.05 h

Input line: Name the recorded Stability for CC[C@H](C)[C@H]1C(=O)N2CCC[C@H]2C(=O)O[C@H](C(C)(C)C)C[C@@H](C)C[C@H](O)[C@H](C)C2=N[C@@H](CCC(=O)N[C@@H](Cc3ccc(OC)cc3)C(=O)N(C)[C@@H](C)C(=O)N1C)CS2 .
Output line: 87.05%

Input line: Name the recorded Stability for CC[C@H](C)[C@H]1C(=O)N2CCC[C@H]2C(=O)O[C@H](C(C)(C)C)C[C@@H](C)C[C@H](O)[C@H](C)C2=N[C@H](CCC(=O)N[C@@H](Cc3ccc(OC)cc3)C(=O)N(C)[C@@H](C)C(=O)N1C)CS2 .
Output line: 83.1%

Input line: Name the recorded Stability for CC[C@H](C)[C@H]1C(=O)N2CCC[C@H]2C(=O)O[C@H](C(C)(C)C)C[C@@H](C)C[C@H](O)CC2=N[C@@H](CCC(=O)N[C@@H](Cc3ccc(OC)cc3)C(=O)N(C)[C@@H](C)C(=O)N1C)CS2 .
Output line: 66.6%

Input line: Name the recorded Stability for CC[C@H](C)[C@H]1C(=O)N2CCC[C@H]2C(=O)O[C@H](C(C)(C)C)C[C@@H](C)C[C@H](O)C(C)(C)C2=N[C@@H](CCC(=O)N[C@@H](Cc3ccc(OC)cc3)C(=O)N(C)[C@@H](C)C(=O)N1C)CS2 .
Output line: 74.1%

====

# System: Liver
# PROTOCOL DESCRIPTION: Metabolic stability in CD1 mouse liver microsomes assessed as compound remaining at 1 uM after 5 mins by HPLC-MS analysis in presence of NADPH
# Format: ADME
Exercise: for every item that follows, state its recorded Stability.
Just the number in %, nothing appended.

Input line: Name the recorded Stability for CC[C@H](C)[C@H]1C(=O)N2CCC[C@H]2C(=O)O[C@H](C(C)(C)C)C[C@@H](C)C[C@H](O)[C@H](C)C2=N[C@@H](CCC(=O)N[C@@H](Cc3ccc(OC)cc3)C(=O)N(C)[C@@H](C)C(=O)N1C)CS2 [APRATOXIN S4] .
Output line: 32.2

Input line: Name the recorded Stability for CC[C@H](C)[C@H]1C(=O)N2CCC[C@H]2C(=O)O[C@H](C(C)(C)C)C[C@@H](C)C[C@H](O)[C@H](C)C2=N[C@H](CCC(=O)N[C@@H](Cc3ccc(OC)cc3)C(=O)N(C)[C@@H](C)C(=O)N1C)CS2 .
Output line: 17.8

Input line: Name the recorded Stability for CC[C@H](C)[C@H]1C(=O)N2CCC[C@H]2C(=O)O[C@H](C(C)(C)C)C[C@@H](C)C[C@H](O)C(C)(C)C2=N[C@@H](CCC(=O)N[C@@H](Cc3ccc(OC)cc3)C(=O)N(C)[C@@H](C)C(=O)N1C)CS2 .
Output line: 17.3

Input line: Name the recorded Stability for CC[C@H](C)[C@H]1C(=O)N2CCC[C@H]2C(=O)O[C@H](C(C)(C)C)C[C@@H](C)C[C@H](O)CC2=N[C@@H](CCC(=O)N[C@@H](Cc3ccc(OC)cc3)C(=O)N(C)[C@@H](C)C(=O)N1C)CS2 .
Output line: 18.7

====

# Test system: Liver
# PROTOCOL DESCRIPTION: Metabolic stability in CD1 mouse liver microsomes assessed as compound remaining at 1 uM after 60 mins by HPLC-MS analysis
# Type: ADME
# CONDITION DESCRIPTION: 1 h
Exercise: for every item that follows, state its recorded Stability.
Just the number in %, nothing appended.

Input line: Name the recorded Stability for CC[C@H](C)[C@H]1C(=O)N2CCC[C@H]2C(=O)O[C@H](C(C)(C)C)C[C@@H](C)C[C@H](O)CC2=N[C@@H](CCC(=O)N[C@@H](Cc3ccc(OC)cc3)C(=O)N(C)[C@@H](C)C(=O)N1C)CS2 .
Output line: 54.5

Input line: Name the recorded Stability for CC[C@H](C)[C@H]1C(=O)N2CCC[C@H]2C(=O)O[C@H](C(C)(C)C)C[C@@H](C)C[C@H](O)[C@H](C)C2=N[C@H](CCC(=O)N[C@@H](Cc3ccc(OC)cc3)C(=O)N(C)[C@@H](C)C(=O)N1C)CS2 .
Output line: 48.45

Input line: Name the recorded Stability for CC[C@H](C)[C@H]1C(=O)N2CCC[C@H]2C(=O)O[C@H](C(C)(C)C)C[C@@H](C)C[C@H](O)C(C)(C)C2=N[C@@H](CCC(=O)N[C@@H](Cc3ccc(OC)cc3)C(=O)N(C)[C@@H](C)C(=O)N1C)CS2 .
Output line: 81.25

Input line: Name the recorded Stability for CC[C@H](C)[C@H]1C(=O)N2CCC[C@H]2C(=O)O[C@H](C(C)(C)C)C[C@@H](C)C[C@H](O)[C@H](C)C2=N[C@@H](CCC(=O)N[C@@H](Cc3ccc(OC)cc3)C(=O)N(C)[C@@H](C)C(=O)N1C)CS2 .
Output line: 87.1

Numbers sourced from ChEMBL document CHEMBL3232820.
